- assayed_system: UniProt P11166
- Sequence (P11166 whole entry): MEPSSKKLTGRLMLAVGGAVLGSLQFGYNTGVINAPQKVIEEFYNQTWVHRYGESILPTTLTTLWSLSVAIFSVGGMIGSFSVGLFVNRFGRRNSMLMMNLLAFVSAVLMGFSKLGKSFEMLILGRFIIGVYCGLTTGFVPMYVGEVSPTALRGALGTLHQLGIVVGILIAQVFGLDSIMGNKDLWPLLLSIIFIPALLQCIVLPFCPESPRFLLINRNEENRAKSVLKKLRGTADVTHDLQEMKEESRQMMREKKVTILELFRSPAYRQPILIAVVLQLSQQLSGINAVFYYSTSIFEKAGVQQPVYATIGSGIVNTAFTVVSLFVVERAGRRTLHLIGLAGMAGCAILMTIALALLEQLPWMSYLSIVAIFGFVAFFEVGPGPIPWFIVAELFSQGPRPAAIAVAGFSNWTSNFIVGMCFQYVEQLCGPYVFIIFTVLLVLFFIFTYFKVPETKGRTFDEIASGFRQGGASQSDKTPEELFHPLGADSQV
- protocol_description: Inhibition of [3H]glucose uptake at mammalian GLUT1 expressed in Xenopus laevis oocytes
measurement_label: pKi
Remember the convention: pKi equals -log10 of concentration in molar.

C=CCCCCCCCCCO[C@H]1[C@H](O)[C@@H](CO)OC(O)[C@@H]1O (stereo partly drawn)    4.01

Next compound, pKi to be filled in.
Give pKi (UniProt P11166) of the following compound: C=CCCCCCCCCCOC[C@H]1OC(O)[C@H](O)[C@@H](O)[C@@H]1O (stereo partly drawn) 3.40

* * *

- System: Plasmodium falciparum
- protocol_description: Antiplasmodial activity against Plasmodium falciparum 3D7
- Type: functional, organism-based
Some compounds, each annotated with its measured pIC50.
Remember the convention: pIC50 equals -log10 of concentration in molar.

C=CCCCCCCCCCO[C@H]1[C@H](O)[C@@H](CO)OC(O)[C@@H]1O (some centres not stated)    3.91

Name the reported pIC50 value associated with the compound C=CCCCCCCCCCO[C@H]1C(O)O[C@H](CO)[C@@H](O)[C@@H]1O (some centres not stated) 5.09

Data provenance is ChEMBL document CHEMBL1140671.
